- Test system: Wnt/β-catenin pathway
- PROTOCOL: SuperTOPFLASH (STF1.1 Hek-293) Wnt/β-catenin-driven luciferase reporter
- Format: cell-based
- CONDITION: Homo sapiens, HEK293; STF1.1 Hek-293; 1 hour pre-incubation, 10 mM LiCl 24 hours
pIC50: −log10 of the molar value.
Quick reference: pIC50 of the listed items.

1. COc1cccc(CNC(=O)N2C3CN(Cc4cc(Cl)cc(Cl)c4N(C)C)C(=O)[C@H](Cc4ccc(O)cc4)N3C(=O)CN2C)c1OC (some centres unmarked) [YH250]: > 7.00

Let us examine a further case.
Q) Reported pIC50, compound COc1cccc(CNC(=O)N2C3CN(Cc4cccc(Cl)c4N(C)C)C(=O)[C@H](Cc4ccc(O)cc4)N3C(=O)CN2C)c1OC (some centres unmarked) [YH249] : ____
A) > 7.00

Ref: patent US20190125753A1
